Values compiled from ChEMBL document CHEMBL4842326.

target: Protein deacetylase HDAC6 (Homo sapiens, UniProt Q9UBN7)
Sequence (Q9UBN7 whole entry): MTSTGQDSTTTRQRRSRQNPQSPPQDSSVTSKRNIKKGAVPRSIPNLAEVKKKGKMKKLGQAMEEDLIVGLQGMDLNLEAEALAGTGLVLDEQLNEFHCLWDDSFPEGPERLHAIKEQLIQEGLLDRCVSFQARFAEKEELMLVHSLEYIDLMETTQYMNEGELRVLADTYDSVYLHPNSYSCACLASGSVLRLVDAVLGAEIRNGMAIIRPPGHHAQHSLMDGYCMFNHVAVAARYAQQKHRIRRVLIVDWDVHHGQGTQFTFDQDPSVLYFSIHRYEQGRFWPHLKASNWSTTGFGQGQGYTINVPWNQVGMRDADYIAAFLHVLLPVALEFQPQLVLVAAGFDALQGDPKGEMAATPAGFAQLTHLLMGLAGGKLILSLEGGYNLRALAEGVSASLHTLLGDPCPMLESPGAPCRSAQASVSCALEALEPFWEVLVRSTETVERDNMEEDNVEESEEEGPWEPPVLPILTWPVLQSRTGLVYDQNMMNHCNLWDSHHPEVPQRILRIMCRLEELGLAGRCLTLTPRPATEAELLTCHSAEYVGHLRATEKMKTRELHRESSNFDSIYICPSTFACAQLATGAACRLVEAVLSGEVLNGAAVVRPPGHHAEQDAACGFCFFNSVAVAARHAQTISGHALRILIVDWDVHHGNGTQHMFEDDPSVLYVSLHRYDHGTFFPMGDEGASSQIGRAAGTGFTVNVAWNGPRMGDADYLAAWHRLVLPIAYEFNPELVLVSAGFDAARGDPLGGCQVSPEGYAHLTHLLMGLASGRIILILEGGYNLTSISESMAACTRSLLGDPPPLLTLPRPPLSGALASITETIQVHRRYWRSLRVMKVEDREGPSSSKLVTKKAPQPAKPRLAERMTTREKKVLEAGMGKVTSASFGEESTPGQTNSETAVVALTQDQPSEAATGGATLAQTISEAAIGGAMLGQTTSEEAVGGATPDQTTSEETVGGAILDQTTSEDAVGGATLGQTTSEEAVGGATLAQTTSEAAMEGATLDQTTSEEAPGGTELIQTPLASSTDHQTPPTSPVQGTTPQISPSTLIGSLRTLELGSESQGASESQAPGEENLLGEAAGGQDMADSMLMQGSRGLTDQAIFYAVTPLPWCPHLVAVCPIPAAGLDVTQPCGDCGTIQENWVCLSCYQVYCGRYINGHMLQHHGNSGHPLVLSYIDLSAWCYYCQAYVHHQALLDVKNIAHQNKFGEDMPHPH
Recorded pIC50, one value per entry.
Hey, just a heads up that pIC50 is the negative log base 10 of the concentration in molar.

Take a look at these entries with their results.
Field pIC50 (Protein deacetylase HDAC6 (Homo sapiens, UniProt Q9UBN7)), entry O=C(NO)c1ccc(CN2C(=O)C(Cc3ccccc3)N(Cc3cccnc3)C2=O)cc1 (racemic) : 8.68

Readout pIC50 for COc1ccc(CC2(c3ccccc3)NC(=O)N(Cc3ccc(C(=O)NO)cc3)C2=O)cc1 (racemic) , test system Protein deacetylase HDAC6 (Homo sapiens, UniProt Q9UBN7), was 7.14

Readout pIC50 for CC(C)CC1C(=O)N(Cc2ccc(C(=O)NO)cc2)C(=O)N1C (racemic) , test system Protein deacetylase HDAC6 (Homo sapiens, UniProt Q9UBN7), was 6.60

Form field, pIC50 with Protein deacetylase HDAC6 (Homo sapiens, UniProt Q9UBN7), item O=C(NO)c1ccc(CN2C(=O)C(Cc3ccccc3)N(Cc3ccc(Cl)cc3)C2=O)cc1 (racemic) : 8.22

Here is another compound to look at.
With Protein deacetylase HDAC6 (Homo sapiens, UniProt Q9UBN7) as the test system, CC(C)CC1C(=O)N(Cc2ccc(C(=O)NO)cc2)C(=O)N1Cc1ccccc1 (racemic) showed pIC50 of 6.89
